Conditions: in acetone, 308.15 K
reported-metric: solubility (mole fraction)
Lab note: record the figure alone, no unit after it.

Prompt: Given CCOc1ncc(C)c2c1[C@H](c1ccc(C#N)cc1OC)C(C(N)=O)=C(C)N2 , respond with its solubility (mole fraction).
Response: 0.00665

* * *

Conditions: in ethyl acetate, 303.15 K
reported-metric: solubility (mole fraction)
Lab note: record the figure alone, no unit after it.

Prompt: Given CCOc1ncc(C)c2c1[C@H](c1ccc(C#N)cc1OC)C(C(N)=O)=C(C)N2 , respond with its solubility (mole fraction).
Response: 0.00195

* * *

Details: in dichloromethane, 278.15 K
reported-metric: solubility (mole fraction)
Lab note: record the figure alone, no unit after it.

Prompt: Given CCOc1ncc(C)c2c1[C@H](c1ccc(C#N)cc1OC)C(C(N)=O)=C(C)N2 , respond with its solubility (mole fraction).
Response: 0.00506

* * *

Conditions: in ethyl acetate, 273.15 K
reported-metric: solubility (mole fraction)
Lab note: record the figure alone, no unit after it.

Prompt: Given CCOc1ncc(C)c2c1[C@H](c1ccc(C#N)cc1OC)C(C(N)=O)=C(C)N2 , respond with its solubility (mole fraction).
Response: 0.00114

* * *

Conditions: in 2-butanone, 283.15 K
reported-metric: solubility (mole fraction)
Lab note: record the figure alone, no unit after it.

Prompt: Given CCOc1ncc(C)c2c1[C@H](c1ccc(C#N)cc1OC)C(C(N)=O)=C(C)N2 , respond with its solubility (mole fraction).
Response: 0.00376

* * *

Conditions: in isopropyl acetate, 278.15 K
reported-metric: solubility (mole fraction)
Lab note: record the figure alone, no unit after it.

Prompt: Given CCOc1ncc(C)c2c1[C@H](c1ccc(C#N)cc1OC)C(C(N)=O)=C(C)N2 , respond with its solubility (mole fraction).
Response: 0.000459

* * *

Details: in dichloromethane, 293.15 K
reported-metric: solubility (mole fraction)
Lab note: record the figure alone, no unit after it.

Prompt: Given CCOc1ncc(C)c2c1[C@H](c1ccc(C#N)cc1OC)C(C(N)=O)=C(C)N2 , respond with its solubility (mole fraction).
Response: 0.00669

* * *

Conditions: in dichloromethane, 283.15 K
reported-metric: solubility (mole fraction)
Lab note: record the figure alone, no unit after it.

Prompt: Given CCOc1ncc(C)c2c1[C@H](c1ccc(C#N)cc1OC)C(C(N)=O)=C(C)N2 , respond with its solubility (mole fraction).
Response: 0.00565

* * *

Settings: in ethyl acetate, 293.15 K
reported-metric: solubility (mole fraction)
Lab note: record the figure alone, no unit after it.

Prompt: Given CCOc1ncc(C)c2c1[C@H](c1ccc(C#N)cc1OC)C(C(N)=O)=C(C)N2 , respond with its solubility (mole fraction).
Response: 0.0017

* * *

Details: in acetonitrile, 313.15 K
reported-metric: solubility (mole fraction)
Lab note: record the figure alone, no unit after it.

Prompt: Given CCOc1ncc(C)c2c1[C@H](c1ccc(C#N)cc1OC)C(C(N)=O)=C(C)N2 , respond with its solubility (mole fraction).
Response: 0.00247

* * *

Details: in methanol, 313.15 K
reported-metric: solubility (mole fraction)
Lab note: record the figure alone, no unit after it.

Prompt: Given CCOc1ncc(C)c2c1[C@H](c1ccc(C#N)cc1OC)C(C(N)=O)=C(C)N2 , respond with its solubility (mole fraction).
Response: 0.00684

* * *

Conditions: in acetone, 313.15 K
reported-metric: solubility (mole fraction)
Lab note: record the figure alone, no unit after it.

Prompt: Given CCOc1ncc(C)c2c1[C@H](c1ccc(C#N)cc1OC)C(C(N)=O)=C(C)N2 , respond with its solubility (mole fraction).
Response: 0.00725
